Tested on: melanoma UACC-62
Assay: COMPARE screening (NCI human cancer cell line screen), cytotoxicity GI50
Assay type: cell-based
measurement.type: GI50 (µM)

{"smiles.str": "O=C1c2ccccc2-c2oc(=O)c3cc4c(cc3c21)OCO4", "relation.symbol": ">", "val": 100}
{"smiles.str": "COc1ccc2c(c1)C(=O)c1c-2n(CCCN(C)C)c(=O)c2ccccc12", "relation.symbol": "=", "val": 1}
{"smiles.str": "CN(C)CCCn1c2c(c3ccc([N+](=O)[O-])cc3c1=O)C(=O)c1ccccc1-2", "relation.symbol": "=", "val": 7.08}
{"smiles.str": "COc1ccc2c(c1)C(=O)c1c-2n(CCCN(C)C)c(=O)c2cc([N+](=O)[O-])ccc12", "relation.symbol": "<", "val": 0.01}

----------
System: CNS SF-539
Assay: COMPARE screening (NCI human cancer cell line screen), cytotoxicity GI50
Format: cell-based
Conditions: CNS SF-539; concentration corresponding to 50% growth inhibition; read-out: cytotoxicity (GI50 in μM) CNS SF-539
Entries and their log10(GI50)
measurement.type: log10(GI50) (log10 of the value in µM)

{"molecule": "CC(C)(C)OC(=O)N(CCCCN(CCCn1c2c(c3ccccc3c1=O)C(=O)c1ccccc1-2)C(=O)OC(C)(C)C)CCCn1c2c(c3ccccc3c1=O)C(=O)c1ccccc1-2 [Compound 13d]", "measurement.type": "log10(GI50)", "val": 0.91}
{"molecule": "COc1cc2c3c(n(CCNCCCNCCn4c5c(c6cc(OC)c(OC)cc6c4=O)C(=O)c4ccccc4-5)c(=O)c2cc1OC)-c1ccccc1C3=O.O=C(O)C(F)(F)F.O=C(O)C(F)(F)F [Compound 14k]", "measurement.type": "log10(GI50)", "val": -0.77}
{"molecule": "O=C(O)C(F)(F)F.O=C(O)C(F)(F)F.O=C1c2ccccc2-c2c1c1ccccc1c(=O)n2CCCNCCCNCCCn1c2c(c3ccccc3c1=O)C(=O)c1ccccc1-2 [Compound 14g]", "measurement.type": "log10(GI50)", "val": -1.96}
{"molecule": "COc1cc2c3c(n(CCCNCCCNCCCn4c5c(c6cc(OC)c(OC)cc6c4=O)C(=O)c4ccccc4-5)c(=O)c2cc1OC)-c1ccccc1C3=O.O=C(O)C(F)(F)F.O=C(O)C(F)(F)F [Compound 14l]", "measurement.type": "log10(GI50)", "val": 0.62}
{"molecule": "CN(CCCn1c2c(c3ccccc3c1=O)C(=O)c1ccccc1-2)CCCn1c2c(c3ccccc3c1=O)C(=O)c1ccccc1-2 [Compound 12d]", "measurement.type": "log10(GI50)", "val": 0.05}
{"molecule": "O=C(O)C(F)(F)F.O=C(O)C(F)(F)F.O=C1c2ccccc2-c2c1c1ccc([N+](=O)[O-])cc1c(=O)n2CCNCCCNCCn1c2c(c3ccc([N+](=O)[O-])cc3c1=O)C(=O)c1ccccc1-2 [Compound 14m]", "measurement.type": "log10(GI50)", "val": -0.49}
{"molecule": "O=C(O)C(F)(F)F.O=C(O)C(F)(F)F.O=C1c2ccccc2-c2c1c1ccccc1c(=O)n2CCNCCCNCCn1c2c(c3ccccc3c1=O)C(=O)c1ccccc1-2 [Compound 14d]", "measurement.type": "log10(GI50)", "val": -0.81}
{"molecule": "O=C(O)C(F)(F)F.O=C(O)C(F)(F)F.O=C1c2ccccc2-c2c1c1ccc([N+](=O)[O-])cc1c(=O)n2CCCNCCCNCCCn1c2c(c3ccc([N+](=O)[O-])cc3c1=O)C(=O)c1ccccc1-2 [Compound 14n]", "measurement.type": "log10(GI50)", "val": 0.07}

----------
Test system: breast MDA-MB-435
Test: COMPARE screening (NCI human cancer cell line screen), cytotoxicity GI50
Type: cell-based
Entries and their GI50

{"molecule": "O=C(O)C(F)(F)F.O=C(O)C(F)(F)F.O=C1c2ccccc2-c2c1c1ccccc1c(=O)n2CCCN1CCN(CCCn2c3c(c4ccccc4c2=O)C(=O)c2ccccc2-3)CC1 [Compound 14f]", "assay.target": "breast MDA-MB-435", "relation.symbol": ">", "GI50 (nM)": 100000}
{"molecule": "COc1cc2c3c(n(CCCn4cncn4)c(=O)c2cc1OC)-c1cc2c(cc1C3=O)OCO2.Cl [Compound 5n, Hydrochloride]", "assay.target": "breast MDA-MB-435", "relation.symbol": ">", "GI50 (nM)": 100000}
{"molecule": "COc1ccc2c(c1)C(=O)c1c-2n(CCCN(C)C)c(=O)c2ccccc12", "assay.target": "breast MDA-MB-435", "relation.symbol": "=", "GI50 (nM)": 617}
{"molecule": "COc1cc2c3c(n(CCCN4CCCC(O)C4)c(=O)c2cc1OC)-c1cc2c(cc1C3=O)OCO2.Cl (stereo not drawn) [Compound 5s, Hydrochloride]", "assay.target": "breast MDA-MB-435", "relation.symbol": "=", "GI50 (nM)": 977}
{"molecule": "O=C1c2ccccc2-c2c1c1ccccc1c(=O)n2CCNCCn1c2c(c3ccccc3c1=O)C(=O)c1ccccc1-2 [Compound 12a]", "assay.target": "breast MDA-MB-435", "relation.symbol": ">", "GI50 (nM)": 25100}
{"molecule": "Cl.NCCn1c2c(c3ccccc3c1=O)C(=O)c1ccccc1-2", "assay.target": "breast MDA-MB-435", "relation.symbol": "=", "GI50 (nM)": 920}
{"molecule": "NCCCn1c2c(c3ccccc3c1=O)C(=O)c1ccccc1-2 [Compound S-3, reference compound]", "assay.target": "breast MDA-MB-435", "relation.symbol": "=", "GI50 (nM)": 780}
{"molecule": "O=C(O)C(F)(F)F.O=C(O)C(F)(F)F.O=C1c2ccccc2-c2c1c1ccccc1c(=O)n2CCCNCCNCCCn1c2c(c3ccccc3c1=O)C(=O)c1ccccc1-2 [Compound 14e]", "assay.target": "breast MDA-MB-435", "relation.symbol": "=", "GI50 (nM)": 933}
{"molecule": "COc1cc2c3c(n(CCCN4CCN(CCO)CC4)c(=O)c2cc1OC)-c1cc2c(cc1C3=O)OCO2", "assay.target": "breast MDA-MB-435", "relation.symbol": ">", "GI50 (nM)": 100000}
{"molecule": "O=C1c2ccccc2-c2c1c1ccccc1c(=O)n2CCN1CCOCC1", "assay.target": "breast MDA-MB-435", "relation.symbol": ">", "GI50 (nM)": 100000}
{"molecule": "COc1cc2c3c(n(CCCn4cccn4)c(=O)c2cc1OC)-c1cc2c(cc1C3=O)OCO2", "assay.target": "breast MDA-MB-435", "relation.symbol": "=", "GI50 (nM)": 7080}
{"molecule": "Cl.NCCCn1c2c(c3ccccc3c1=O)C(=O)c1ccccc1-2", "assay.target": "breast MDA-MB-435", "relation.symbol": "=", "GI50 (nM)": 780}
{"molecule": "O=C1c2ccccc2-c2oc(=O)c3cc4c(cc3c21)OCO4", "assay.target": "breast MDA-MB-435", "relation.symbol": ">", "GI50 (nM)": 100000}
{"molecule": "CN(C)CCCn1c2c(c3ccc([N+](=O)[O-])cc3c1=O)C(=O)c1ccccc1-2", "assay.target": "breast MDA-MB-435", "relation.symbol": ">", "GI50 (nM)": 100000}
{"molecule": "O=C1c2ccccc2-c2c1c1ccc([N+](=O)[O-])cc1c(=O)n2CCCn1ccnc1", "assay.target": "breast MDA-MB-435", "relation.symbol": "=", "GI50 (nM)": 2170}

----------
System: prostate DU-145
Assay: COMPARE screening (NCI human cancer cell line screen), cytotoxicity GI50
Assay type: cell-based
Entries and their GI50
measurement.type: GI50 (µM)

{"compound": "CC(C)(C)OC(=O)NCCCCCCCCn1c2c(c3ccccc3c1=O)C(=O)c1ccccc1-2", "u": "µM", "relation.symbol": ">", "val": 50.1}
{"compound": "COc1ccc2c(c1)C(=O)c1c-2n(CCCn2ccnc2)c(=O)c2ccccc12", "u": "µM", "relation.symbol": "=", "val": 0.204}
{"compound": "COc1cc2c3c(n(CCCNc4nccs4)c(=O)c2cc1OC)-c1cc2c(cc1C3=O)OCO2.Cl.Cl [Compound 5o, Dihydrochloride]", "u": "µM", "relation.symbol": "<", "val": 0.01}
{"compound": "COc1cc2c3c(n(CCCN4CCN(C)CC4)c(=O)c2cc1OC)-c1cc2c(cc1C3=O)OCO2", "u": "µM", "relation.symbol": "=", "val": 10.7}

----------
Tested on: breast MDA-MB-435
Test: COMPARE screening (NCI human cancer cell line screen), cytotoxicity GI50
Assay type: cell-based
Settings: breast MDA-MB-435; concentration corresponding to 50% growth inhibition; read-out: cytotoxicity (GI50 in μM) breast MDA-MB-435
Entries and their GI50

{"molecule": "O=C(O)C(F)(F)F.O=C(O)C(F)(F)F.O=C1c2ccccc2-c2c1c1ccc([N+](=O)[O-])cc1c(=O)n2CCNCCCNCCn1c2c(c3ccc([N+](=O)[O-])cc3c1=O)C(=O)c1ccccc1-2 [Compound 14m]", "u": "µM", "relation.symbol": "=", "GI50": 0.437}
{"molecule": "COc1cc2c3c(n(CCCNCCCNCCCn4c5c(c6ccccc6c4=O)C(=O)c4ccccc4-5)c(=O)c2cc1OC)-c1cc2c(cc1C3=O)OCO2.O=C(O)C(F)(F)F.O=C(O)C(F)(F)F [Compound 17a]", "u": "µM", "relation.symbol": "=", "GI50": 0.155}
{"molecule": "CC(C)(C)OC(=O)N(CCCn1c2c(c3ccccc3c1=O)C(=O)c1ccccc1-2)CCN(CCCn1c2c(c3ccccc3c1=O)C(=O)c1ccccc1-2)C(=O)OC(C)(C)C [Compound 13b]", "u": "µM", "relation.symbol": ">", "GI50": 50.1}
